test: Stability and protonation constants and pMn of the Mn(II) complexes (pH-potentiometry and/or 1H relaxometry); format: physicochemical; details: calculated at pH = 7.4, cM = cL = 10^−5 M; I = 0.15 M NaCl, 25 °C
assay.metric: pMn
Hey, just send me the number, nothing else.

Below are worked cases with known answers.
NC(=O)CN1CCN(CC(N)=O)Cc2cccc(n2)CN(CC(N)=O)CC1 7.77
O=C(O)CN1CCOCCN(CC(=O)O)CCN(CC(=O)O)CC1 8.57
O=C(O)CN1CCN(CC(=O)O)Cc2cccc(n2)CN(CC(=O)O)CC1 9.74

Ask | Which value of pMn has been reported for "O=C(CN1CCN(CC(=O)N2CCCCC2)Cc2cccc(n2)CN(CC(=O)N2CCCCC2)CC1)N1CCCCC1" in the records?
Reply | 8.86

Ask | Please answer likewise for "NC(=O)CN1CCNCCN(CC(N)=O)CCN(CC(N)=O)CC1"
Reply | 7.32

Ask | Please answer likewise for "O=P(O)(O)CN1CCNCCN(CP(=O)(O)O)CCN(CP(=O)(O)O)CC1"
Reply | 6.43

Ask | Please answer likewise for "NC(=O)CN1CCN(CC(N)=O)CCN(CC(N)=O)CCN(CC(N)=O)CC1"
Reply | 8.60

* * *

test: Protonation constants of the ligands by pH-potentiometric titration; type: physicochemical; settings: log K1H + log K2H; I = 0.15 M NaCl, 25 °C
Output Fulfilled for records whose Σ log K2H is lower than 20, Not fulfilled for records at or above 20.

NC(=O)CN1CCN(CC(N)=O)CCN(CC(N)=O)CCN(CC(N)=O)CC1 Fulfilled

Ask | Lab log: compare recorded Σ log K2H with 20; is it strictly lower for "O=C(O)CN1CCNCCN(CC(=O)O)CCN(CC(=O)O)CC1" ?
Reply | Fulfilled

Ask | Please answer likewise for "NC(=O)CN1CCNCCN(CC(N)=O)CCN(CC(N)=O)CC1"
Reply | Fulfilled

Ask | Please answer likewise for "O=C(CN1CCN(CC(=O)N2CCCCC2)Cc2cccc(n2)CN(CC(=O)N2CCCCC2)CC1)N1CCCCC1"
Reply | Fulfilled

Ask | Please answer likewise for "O=C(O)CN1CCOCCN(CC(=O)O)CCN(CC(=O)O)CC1"
Reply | Fulfilled

Ask | Please answer likewise for "O=C(O)CN1CCN(CC(=O)O)Cc2cccc(n2)CN(CC(=O)O)CC1"
Reply | Fulfilled

Ask | Please answer likewise for "O=C(O)CNC(=O)CN1CCN(CC(=O)NCC(=O)O)Cc2cccc(n2)CN(CC(=O)NCC(=O)O)CC1"
Reply | Fulfilled

Ask | Please answer likewise for "O=P(O)(O)CN1CCNCCN(CP(=O)(O)O)CCN(CP(=O)(O)O)CC1"
Reply | Not fulfilled

Ask | Please answer likewise for "NC(=O)CN1CCN(CC(N)=O)Cc2cccc(n2)CN(CC(N)=O)CC1"
Reply | Fulfilled

Ask | Please answer likewise for "O=P(O)(O)CN1CCN(CP(=O)(O)O)CCN(CP(=O)(O)O)CCN(CP(=O)(O)O)CC1"
Reply | Not fulfilled

* * *

assay: Dissociation kinetics of the Mn(II) complexes (acid catalyzed dissociation, metal or ligand exchange reactions); format: physicochemical; settings: half-life of dissociation calculated for pH 7.4, 10 μM exchanging metal ion; I = 0.15 M NaCl, 25 °C
assay.metric: t1/2 pH = 7.4 cM = 10^−5 M

Ask | Which value of t1/2 pH = 7.4 cM = 10^−5 M has been reported for O=P([O-])([O-])CN1CCNCCN(CP(=O)([O-])[O-])CCN(CP(=O)([O-])[O-])CC1.[Mn+2] [[Mn(DO3P)]^4−] in the records?
Reply | 3 × 10^−3 h

* * *

Some compounds, each annotated with its measured log K2H.
assay: Protonation constants of the ligands by pH-potentiometric titration; format: physicochemical; details: ligand protonation constant; I = 0.15 M NaCl, 25 °C

compound	assay.metric	obs.value
O=P(O)(O)CN1CCNCCN(CP(=O)(O)O)CCN(CP(=O)(O)O)CC1 [DO3P]	log K2H	11.37 (1)
O=C(O)CN1CCNCCN(CC(=O)O)CCN(CC(=O)O)CC1 [DO3A]	log K2H	8.93 (6)
O=C(O)CN1CCOCCN(CC(=O)O)CCN(CC(=O)O)CC1 [ODO3A]	log K2H	7.58 (2)
NC(=O)CN1CCN(CC(N)=O)Cc2cccc(n2)CN(CC(N)=O)CC1 [PC3AM^H]	log K2H	4.10 (4)
NC(=O)CN1CCNCCN(CC(N)=O)CCN(CC(N)=O)CC1 [DO3AM^H]	log K2H	6.28 (8)

Ask | Which value of log K2H has been reported for O=C(O)CN1CCN(CC(=O)O)Cc2cccc(n2)CN(CC(=O)O)CC1 [PCTA] in the records?
Reply | 6.73 (5)

Ask | Please answer likewise for O=C(CN1CCN(CC(=O)N2CCCCC2)Cc2cccc(n2)CN(CC(=O)N2CCCCC2)CC1)N1CCCCC1 [PC3AM^Pip]
Reply | 5.77 (2)

Ask | Please answer likewise for O=P(O)(O)CN1CCN(CP(=O)(O)O)CCN(CP(=O)(O)O)CCN(CP(=O)(O)O)CC1 [DOTP]
Reply | 12.23 (3)

Ask | Please answer likewise for O=C(O)CNC(=O)CN1CCN(CC(=O)NCC(=O)O)Cc2cccc(n2)CN(CC(=O)NCC(=O)O)CC1 [PC3AM^Gly]
Reply | 4.55 (1)

Ask | Please answer likewise for NC(=O)CN1CCN(CC(N)=O)CCN(CC(N)=O)CCN(CC(N)=O)CC1 [DOTAM]
Reply | 6.07 (1)

* * *

test: Protonation constants of the ligands by pH-potentiometric titration; type: physicochemical; settings: ligand protonation constant; I = 0.15 M NaCl, 25 °C
Some compounds, each annotated with its measured log K4H.

Below are worked cases with known answers.
O=C(O)CNC(=O)CN1CCN(CC(=O)NCC(=O)O)Cc2cccc(n2)CN(CC(=O)NCC(=O)O)CC1 3.21 (1)
O=C(O)CN1CCOCCN(CC(=O)O)CCN(CC(=O)O)CC1 2.39(3)
O=C(O)CN1CCNCCN(CC(=O)O)CCN(CC(=O)O)CC1 4.11 (7)
O=C(O)CN1CCN(CC(=O)O)Cc2cccc(n2)CN(CC(=O)O)CC1 1.40 (9)
O=P(O)(O)CN1CCNCCN(CP(=O)(O)O)CCN(CP(=O)(O)O)CC1 7.02(2)

Ask | Which value of log K4H has been reported for "O=P(O)(O)CN1CCN(CP(=O)(O)O)CCN(CP(=O)(O)O)CCN(CP(=O)(O)O)CC1" in the records?
Reply | 7.45 (4)

* * *

Some compounds, each annotated with its measured log K5H.
experiment: Protonation constants of the ligands by pH-potentiometric titration; type: physicochemical; settings: ligand protonation constant; I = 0.15 M NaCl, 25 °C

Ask | Which value of log K5H has been reported for "O=C(O)CNC(=O)CN1CCN(CC(=O)NCC(=O)O)Cc2cccc(n2)CN(CC(=O)NCC(=O)O)CC1" in the records?
Reply | 2.80 (1)

Ask | Please answer likewise for "O=C(O)CN1CCNCCN(CC(=O)O)CCN(CC(=O)O)CC1"
Reply | 1.88 (7)

Ask | Please answer likewise for "O=P(O)(O)CN1CCNCCN(CP(=O)(O)O)CCN(CP(=O)(O)O)CC1"
Reply | 5.36 (2)

Ask | Please answer likewise for "O=P(O)(O)CN1CCN(CP(=O)(O)O)CCN(CP(=O)(O)O)CCN(CP(=O)(O)O)CC1"
Reply | 5.84 (5)

* * *

Assay: Stability and protonation constants and pMn of the Mn(II) complexes (pH-potentiometry and/or 1H relaxometry)
Format: physicochemical
Settings: stability constant of the Mn(II) complex; I = 0.15 M NaCl, 25 °C
Procedure: The concentration of the ligand solutions was determined by pH-potentiometric titration in the presence and absence of an excess (5–10 fold) of MnCl2. […] The equilibrium constants characterizing the deprotonation that occurs at basic pH were determined from the data obtained via direct pH-potentiometric titrations performed on the pre-formed complexes. […]
Some compounds, each annotated with its measured log KML.

Below are worked cases with known answers.
O=C(O)CNC(=O)CN1CCN(CC(=O)NCC(=O)O)Cc2cccc(n2)CN(CC(=O)NCC(=O)O)CC1 13.20 (1)
O=P(O)(O)CN1CCNCCN(CP(=O)(O)O)CCN(CP(=O)(O)O)CC1 17.45 (2)
NC(=O)CN1CCNCCN(CC(N)=O)CCN(CC(N)=O)CC1 11.69 (2)
NC(=O)CN1CCN(CC(N)=O)Cc2cccc(n2)CN(CC(N)=O)CC1 11.94(3)

Moving on to another compound below.
Ask | Which value of log KML has been reported for "O=C(O)CN1CCNCCN(CC(=O)O)CCN(CC(=O)O)CC1" in the records?
Reply | 16.55 (4)

* * *

test: Protonation constants of the ligands by pH-potentiometric titration; format: physicochemical; details: ligand protonation constant; I = 0.15 M NaCl, 25 °C
assay.metric: log K1H

compound	log K1H
O=C(O)CN1CCOCCN(CC(=O)O)CCN(CC(=O)O)CC1 [ODO3A]	8.74 (2)
O=P(O)(O)CN1CCNCCN(CP(=O)(O)O)CCN(CP(=O)(O)O)CC1 [DO3P]	12.55 (2)
NC(=O)CN1CCN(CC(N)=O)CCN(CC(N)=O)CCN(CC(N)=O)CC1 [DOTAM]	7.31 (1)
NC(=O)CN1CCNCCN(CC(N)=O)CCN(CC(N)=O)CC1 [DO3AM^H]	9.40 (5)

Moving on to another compound below.
Ask | Which value of log K1H has been reported for O=C(O)CN1CCN(CC(=O)O)Cc2cccc(n2)CN(CC(=O)O)CC1 [PCTA] in the records?
Reply | 9.97 (3)
